Every entry's value here was drawn from BindingDB's records for doi:10.7270/Q21V5CDC.

assay system: Amyloid-beta A4 precursor protein-binding family A member 1 (Rattus norvegicus)
Sequence (O35430 whole entry): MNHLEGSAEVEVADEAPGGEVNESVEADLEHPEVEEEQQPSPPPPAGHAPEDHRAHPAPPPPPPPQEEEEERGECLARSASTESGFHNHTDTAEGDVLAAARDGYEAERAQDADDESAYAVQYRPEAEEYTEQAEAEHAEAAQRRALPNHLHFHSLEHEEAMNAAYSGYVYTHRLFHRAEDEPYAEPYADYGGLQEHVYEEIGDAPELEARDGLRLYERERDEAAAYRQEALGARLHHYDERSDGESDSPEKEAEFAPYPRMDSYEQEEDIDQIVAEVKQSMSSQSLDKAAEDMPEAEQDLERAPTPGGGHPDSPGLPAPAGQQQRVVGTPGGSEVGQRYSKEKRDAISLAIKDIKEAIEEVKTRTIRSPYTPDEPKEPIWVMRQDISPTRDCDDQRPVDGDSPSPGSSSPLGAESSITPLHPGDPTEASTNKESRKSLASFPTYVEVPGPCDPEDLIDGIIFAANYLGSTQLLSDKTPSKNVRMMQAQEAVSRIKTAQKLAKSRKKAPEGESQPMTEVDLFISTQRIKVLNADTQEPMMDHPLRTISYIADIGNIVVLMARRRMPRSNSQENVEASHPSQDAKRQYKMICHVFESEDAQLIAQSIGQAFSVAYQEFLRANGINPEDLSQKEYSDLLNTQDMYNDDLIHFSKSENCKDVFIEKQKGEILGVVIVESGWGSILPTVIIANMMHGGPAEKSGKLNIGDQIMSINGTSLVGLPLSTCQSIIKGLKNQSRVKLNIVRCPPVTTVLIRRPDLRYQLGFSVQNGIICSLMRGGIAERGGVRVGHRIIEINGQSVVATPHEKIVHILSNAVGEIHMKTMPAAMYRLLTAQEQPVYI
experimental details: disruptors of Mint-PDZ/N-type channel peptide interaction – biochemical, HTRF, SAR follow-up (AID 2489)
measurement label: IC50 (µM)

1) CC12C=CC(C)(O1)c1c2c(O)n(-c2ccccc2)c1O :: 11.7

[I] CCCc1ccc(CC2=C(C(=O)OCC)C(=O)c3ccccc3C2=O)cc1 [MLS000571357]
[II] CC12C=CC(C)(O1)c1c2c(O)n(-c2ccc(F)cc2)c1O
[III] CCCCc1ccc(CC2=C(C(=O)OCC)C(=O)c3ccccc3C2=O)cc1
[IV] Cc1cccc(-n2c(O)c3c(c2O)C2(C)C=CC3(C)O2)c1
-- ask Endpoint returns the given compounds ordered by ascending IC50. Order the labels as requested and give them as your answer.
-- reply I, II, III, IV

[1] Cc1ccc(-n2c(O)c3c(c2O)C2(C)C=CC3(C)O2)cc1
[2] CC(=O)Oc1ccc(-n2c(O)c3c(c2O)C2(C)C=CC3(C)O2)cc1 [MLS000107813]
-- ask Consider entries 1 and 2 . Which has the numerically lower IC50? API: response body contains the label of the selected item.
-- reply 2
